- system-tested: Rhodopsin kinase GRK7 (Homo sapiens)
- Sequence (Q8WTQ7 whole entry): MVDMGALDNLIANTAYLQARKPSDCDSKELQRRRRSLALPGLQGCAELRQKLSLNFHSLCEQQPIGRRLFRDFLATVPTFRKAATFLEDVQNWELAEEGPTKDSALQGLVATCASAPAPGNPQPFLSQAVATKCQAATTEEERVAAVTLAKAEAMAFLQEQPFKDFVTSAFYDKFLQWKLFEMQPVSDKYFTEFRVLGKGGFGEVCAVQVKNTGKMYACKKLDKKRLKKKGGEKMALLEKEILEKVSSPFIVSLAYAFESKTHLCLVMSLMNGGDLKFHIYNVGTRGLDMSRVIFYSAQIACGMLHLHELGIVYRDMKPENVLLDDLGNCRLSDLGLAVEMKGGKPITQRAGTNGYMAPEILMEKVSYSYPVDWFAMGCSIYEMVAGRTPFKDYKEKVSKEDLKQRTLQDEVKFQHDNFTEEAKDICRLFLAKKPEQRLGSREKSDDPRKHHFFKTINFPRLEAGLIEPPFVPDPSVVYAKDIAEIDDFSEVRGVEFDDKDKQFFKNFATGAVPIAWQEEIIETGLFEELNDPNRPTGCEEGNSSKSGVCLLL
- procedure-text: Inhibition of recombinant full length human GRK7 using casein as substrate incubated for 40 mins in presence of [gamma-33ATP] by scintillation counting based radiometry assay
measure: IC50

smiles_structure=CCc1cc(Nc2nc(N[C@@H](C)c3ccc(F)cn3)nc3cccc(OC)c23)n[nH]1 experimental_result="0.015 µM"
smiles_structure=CCc1cc(Nc2nc(NCc3ccc(F)cn3)nc3cccc(OC)c23)n[nH]1 experimental_result="0.036 µM"
smiles_structure=CCc1cc(Nc2nc(NCc3ccc(Cl)cc3OC)nc3cccc(OC)c23)n[nH]1 experimental_result="0.0064 µM"

----------
Please consider the recorded pIC50 for UniProtKB P35626 in what follows.
Sequence (P35626 whole entry): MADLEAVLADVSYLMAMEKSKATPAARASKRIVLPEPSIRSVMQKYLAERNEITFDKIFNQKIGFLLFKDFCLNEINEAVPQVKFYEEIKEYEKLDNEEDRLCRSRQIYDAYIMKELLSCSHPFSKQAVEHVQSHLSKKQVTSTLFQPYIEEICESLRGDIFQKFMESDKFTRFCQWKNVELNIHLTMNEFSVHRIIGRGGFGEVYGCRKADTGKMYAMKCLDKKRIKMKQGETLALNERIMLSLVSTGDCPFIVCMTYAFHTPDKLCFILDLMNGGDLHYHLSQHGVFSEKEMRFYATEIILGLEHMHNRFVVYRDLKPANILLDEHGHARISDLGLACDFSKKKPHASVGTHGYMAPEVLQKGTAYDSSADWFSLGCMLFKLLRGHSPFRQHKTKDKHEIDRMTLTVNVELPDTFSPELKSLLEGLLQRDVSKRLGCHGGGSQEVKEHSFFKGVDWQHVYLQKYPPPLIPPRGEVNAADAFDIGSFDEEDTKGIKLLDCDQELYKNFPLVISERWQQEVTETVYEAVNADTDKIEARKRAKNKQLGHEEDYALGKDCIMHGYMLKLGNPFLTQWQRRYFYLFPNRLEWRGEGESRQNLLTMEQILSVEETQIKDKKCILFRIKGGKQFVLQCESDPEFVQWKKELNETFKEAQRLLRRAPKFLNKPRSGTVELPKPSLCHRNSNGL
pIC50: −log10 of the molar value.
measure: pIC50

smiles_structure=CCc1cc(Nc2nc(NCc3ccc(F)cn3)nc3cccc(OC)c23)n[nH]1 measure=pIC50 experimental_result="< 5.00"
smiles_structure=CCc1cc(Nc2nc(N[C@@H](C)c3ccc(F)cn3)nc3cccc(OC)c23)n[nH]1 measure=pIC50 experimental_result="< 5.00"
